target: PKC-theta (Homo sapiens); construct: His-tag; made in house; host or cells: baculovirus-infected Sf9 cells; assay: In vitro kinase assay: peptide phosphorylation by PKC-theta; assay type: biochemical; details: peptide concentration 10 uM
Sequence (Q04759 whole entry): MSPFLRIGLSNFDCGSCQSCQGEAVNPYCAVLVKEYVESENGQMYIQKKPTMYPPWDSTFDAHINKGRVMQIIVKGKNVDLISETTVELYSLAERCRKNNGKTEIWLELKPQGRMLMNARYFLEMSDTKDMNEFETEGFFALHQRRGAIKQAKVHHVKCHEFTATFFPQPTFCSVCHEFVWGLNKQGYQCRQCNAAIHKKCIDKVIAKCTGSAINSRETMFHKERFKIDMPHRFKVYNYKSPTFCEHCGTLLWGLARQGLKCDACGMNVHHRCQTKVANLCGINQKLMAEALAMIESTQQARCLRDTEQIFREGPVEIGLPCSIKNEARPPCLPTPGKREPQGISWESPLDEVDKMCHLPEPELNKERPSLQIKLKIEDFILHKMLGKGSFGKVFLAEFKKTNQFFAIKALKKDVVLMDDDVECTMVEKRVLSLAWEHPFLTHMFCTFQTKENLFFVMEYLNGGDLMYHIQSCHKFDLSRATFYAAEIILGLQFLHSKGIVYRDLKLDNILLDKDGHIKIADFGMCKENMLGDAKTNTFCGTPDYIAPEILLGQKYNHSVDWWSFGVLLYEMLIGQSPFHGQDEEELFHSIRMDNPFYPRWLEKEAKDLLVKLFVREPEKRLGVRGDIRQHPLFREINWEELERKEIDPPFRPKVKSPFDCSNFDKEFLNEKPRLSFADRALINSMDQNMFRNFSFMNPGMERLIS
Endpoint name: phosphorylation by PKC theta
Format: numeric value only, no unit, no commentary.

# example entries with known answers
| Substance | phosphorylation by PKC theta |
| --- | --- |
| 163 (PPRTPGWHQLQPRRVSFRGE) [compound 163] | 11 |
| 144 (LSSMFGTLPRKSRKGSVRKQ) [compound 144] | 22 |
| 142 (ERHVAQKKSRLRRRASQLKI) [compound 142] | 37 |
| 133 (LEKRGMLGKRPRRKSSRRKK) [compound 133] | 53 |
| 157 (PSPSNETPKKKKKRFSFKKS) [compound 157] | 23 |
| 148 (RELEQLKAEYLERRASRRRA) [compound 148] | 34 |
| 164 (TEGKMARVAWKGKRRSKARK) [compound 164] | 20 |
| 162 (KKKFSFKKPFKLSGLSFKRN) [compound 162] | 13 |
| 137 (PSKSPSKKKKKFRTPSFLKK) [compound 137] | 19 |
| 119 (KKRFSFKKSFKLSGFSFKKN) [compound 119] | 28 |

Please turn your attention to the following entry.
Lookup: Given 149 (RVVQSVKHTKRKSSTVMK) [compound 149] , report its phosphorylation by PKC theta on PKC-theta (Homo sapiens).
Found: 14

====

target: PKC-alpha (Homo sapiens); construct: purchased Calbiochem; assay: In vitro kinase assay: peptide phosphorylation by PKC-alpha; assay type: biochemical; conditions: peptide concentration 1 uM
Given measured phosphorylation by PKC alpha, output t if it is greater than or equal to 50 and f if not.

Answered examples (10):
| Substance | Assigned label |
| --- | --- |
| 120 (AKRRRLSSLRASTSK) [compound 120] | t |
| 141 (VTDSQKRREILSRRPSYRKI) [compound 141] | f |
| 114 (KKKKRASFKRKSSKKG) [compound 114] | t |
| 127 (SQVQKQRSAGSFKRNSIKKI) [compound 127] | f |
| 153 (TYLLPDKSRQGKRKTSIKRD) [compound 153] | f |
| 156 (SAQITIPKDGQKRKKSLRKK) [compound 156] | f |
| 123 (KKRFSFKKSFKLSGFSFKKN) [compound 123] | t |
| 147 (RDIRQSPKRGFLRSASLGRR) [compound 147] | f |
| 133 (LEKRGMLGKRPRRKSSRRKK) [compound 133] | f |
| 157 (PSPSNETPKKKKKRFSFKKS) [compound 157] | f |

Lookup: Given the entry 118 (RPQNTLKASKKKKRASFKRK) [compound 118] , answer whether its phosphorylation by PKC alpha meets or surpasses 50.
Found: f

Lookup: Given the entry 155 (RWDKRRWRKIPKRPGSVHRT) [compound 155] , answer whether its phosphorylation by PKC alpha meets or surpasses 50.
Found: f

Lookup: Given the entry 163 (PPRTPGWHQLQPRRVSFRGE) [compound 163] , answer whether its phosphorylation by PKC alpha meets or surpasses 50.
Found: f

Lookup: Given the entry 119 (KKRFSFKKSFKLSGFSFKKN) [compound 119] , answer whether its phosphorylation by PKC alpha meets or surpasses 50.
Found: t

Lookup: Given the entry 167 (GLPAPGEDKSIYRRGSRRWR) [compound 167] , answer whether its phosphorylation by PKC alpha meets or surpasses 50.
Found: f

Lookup: Given the entry 164 (TEGKMARVAWKGKRRSKARK) [compound 164] , answer whether its phosphorylation by PKC alpha meets or surpasses 50.
Found: f

Lookup: Given the entry 129 (VQRHRSMRKTFARYLSFRRD) [compound 129] , answer whether its phosphorylation by PKC alpha meets or surpasses 50.
Found: t
